- Tested on: SH-SY5Y
- protocol details: Cytotoxicity against human SH-SY5Y cells assessed as reduction in cell viability after 24 hrs by MTT assay
- Type: cell-based
measured quantity: IC50 (µM)

# smiles str, units symbol, result
rows = [
    ("COc1cc(CNc2ccc(Nc3c4c(nc5ccccc35)CCCC4)cc2)ccc1O", "µM", 45.1),
]

Provenance of the data: ChEMBL document CHEMBL4373635
